# subjectOfTest: PRMT1 (Homo sapiens, UniProt Q99873)
# Construct: made in house
# Sequence (Q99873 whole entry, species assumed): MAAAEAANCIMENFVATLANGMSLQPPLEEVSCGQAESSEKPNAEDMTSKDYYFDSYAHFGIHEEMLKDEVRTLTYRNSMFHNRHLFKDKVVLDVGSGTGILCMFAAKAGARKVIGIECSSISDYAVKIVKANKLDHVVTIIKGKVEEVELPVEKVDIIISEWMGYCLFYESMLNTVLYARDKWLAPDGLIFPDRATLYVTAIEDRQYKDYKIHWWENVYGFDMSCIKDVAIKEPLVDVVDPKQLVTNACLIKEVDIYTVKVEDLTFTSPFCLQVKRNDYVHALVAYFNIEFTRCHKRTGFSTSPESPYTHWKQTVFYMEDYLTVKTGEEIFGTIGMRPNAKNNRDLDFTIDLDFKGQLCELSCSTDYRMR
# experimentalDetails: SAHH-coupled fluorescence assay, inhibition of PRMT1
# Type: biochemical
# conditionParameters: read-out: IC50[μM] | PRMT1
observationType: IC50 (µM)
Give bare numbers, in µM.

Field: example entries. Status: answers known.
[
  {
    "smilesCode": "N=C(NCCSC[C@H]1O[C@@H](n2cnc3c(N)ncnc32)[C@H](O)[C@@H]1O)Nc1cccc(-c2cccc(F)c2)c1",
    "IC50 / µM": 4.9
  },
  {
    "smilesCode": "N=C(NCCCSC[C@H]1O[C@@H](n2cnc3c(N)ncnc32)[C@H](O)[C@@H]1O)Nc1cccc(-c2ccc3c(c2)OCCO3)c1",
    "IC50 / µM": 0.21
  },
  {
    "smilesCode": "N=C(NCCSC[C@H]1O[C@@H](n2cnc3c(N)ncnc32)[C@H](O)[C@@H]1O)Nc1ccccc1",
    "IC50 / µM": 3
  },
  {
    "smilesCode": "N=C(NCCCSC[C@H]1O[C@@H](n2cnc3c(N)ncnc32)[C@H](O)[C@@H]1O)Nc1cccc(-c2ccc(C(F)(F)F)cc2)c1",
    "IC50 / µM": 0.25
  },
  {
    "smilesCode": "N=C(NCCCSC[C@H]1O[C@@H](n2cnc3c(N)ncnc32)[C@H](O)[C@@H]1O)Nc1cccc(-c2ccc(O)cc2)c1",
    "IC50 / µM": 0.23
  }
]

[in] Find the measured IC50 of N=C(NCCSC[C@H]1O[C@@H](n2cnc3c(N)ncnc32)[C@H](O)[C@@H]1O)Nc1cccc(-c2ccc(Cl)cc2)c1 with PRMT1 (Homo sapiens, UniProt Q99873) as test system.
[out] 0.21
